Target: T1, HLA-DR6w19 (DRB1*1302) (human)
T1 chain 1: not shown
T1 chain 2: not shown
pIC50: −log10 of the molar value.

BINDER: KCNLYADSAWENVKN (modifications not checked) [35.0172 … (Pf SSP2 211)]
pIC50: 4.96
